The origin of these recorded values is patent US4259337A.

In this section we review reported LD50 at 48 h values for a set of compounds.
Test: Acute toxicity
Conditions: mouse, in vivo, ip; mice, intraperitoneal, 48 hours after administration
Where a name gives a salt, the structure may show the parent alone.

Look over these answered cases.
CC(C)N1CCCC(c2cccc(C(F)(F)F)c2)C1.Cl (stereo not shown) [Example 4] | ~100 mg/kg
Cl.FC(F)(F)c1cccc(C2CCCNC2)c1 (stereo not shown) [Example 1] | ~150 mg/kg
FC(F)(F)c1cccc(C2CCCN(Cc3ccccc3)C2)c1 (stereo not shown) [Example 6, hydrochloride] | ~150 mg/kg

Now for a further compound.
query: Fill in: LD50 at 48 h of CN1CCCC(c2cccc(C(F)(F)F)c2)C1.Cl (stereo not shown) [Example 3] is ___
result: ~100 mg/kg
